- SYSTEM NAME: T1, human DLL3 (ACRO, DLL3-H52H4) (human, UniProt Q9NYJ7 27-492)
- T1 construct: Bought
- T1 sequence: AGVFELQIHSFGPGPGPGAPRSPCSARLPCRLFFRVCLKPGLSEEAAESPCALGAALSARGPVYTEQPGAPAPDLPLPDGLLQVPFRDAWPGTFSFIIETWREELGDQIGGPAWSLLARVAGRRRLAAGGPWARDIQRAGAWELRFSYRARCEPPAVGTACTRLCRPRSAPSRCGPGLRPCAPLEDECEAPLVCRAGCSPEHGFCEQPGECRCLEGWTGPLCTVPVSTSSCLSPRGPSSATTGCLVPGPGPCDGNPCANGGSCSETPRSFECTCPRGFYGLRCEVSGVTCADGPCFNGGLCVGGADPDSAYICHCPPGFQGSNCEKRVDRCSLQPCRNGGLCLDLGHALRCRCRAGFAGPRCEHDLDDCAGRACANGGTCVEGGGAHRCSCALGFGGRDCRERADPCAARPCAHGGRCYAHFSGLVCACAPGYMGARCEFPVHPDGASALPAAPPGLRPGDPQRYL
- PROTOCOL DETAILS: SPR Biacore 8K, Ab captured on Protein A
I'd be grateful if you could share measured Kd for these entries.
Form entry: value (nM) — number only.

Returns the measured Kd for the input binder. Input: hu30L1H6 (antibody, human IgG1, kappa, V domains shown) VH: EVRLVQSGAEVKKPGASVKVSCKASGYTFTDYYMNWVRQAPGQSLEWMGIINPYNVDTSYNQKFRGRVTLTVDKSASTAYMELSSLRSEDTAVYYCARYHYGPHLEGYFDVWGQGTTVTVSS VL: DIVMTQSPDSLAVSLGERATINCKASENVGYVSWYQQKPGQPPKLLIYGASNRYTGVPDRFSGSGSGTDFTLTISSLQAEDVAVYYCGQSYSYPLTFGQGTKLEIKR
1.38

What value of measured Kd is listed for hu30L4H8 (antibody, human IgG1, kappa, V domains shown) VH: EVRLVQFGAVVKKPGASVKVSCKASGYTFTDYYMNWVRQAPGQSLEWMGIINPYTGDTSYNQKFRGRVTLTVDKSSSTAYMELSSLRSEDTAVYYCARYHYGPHLEGYFDVWGQGTTVTVSS VL: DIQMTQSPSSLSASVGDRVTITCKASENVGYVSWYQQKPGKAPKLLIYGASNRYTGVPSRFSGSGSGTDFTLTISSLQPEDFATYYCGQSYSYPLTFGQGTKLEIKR ?
2.74

// data source = patent US20250376519A1
